// provenance: patent US20260132123A1

System: mtsABAD HEK293 cells
assayProcedure: Alamar Blue cell viability assay
Format: cell-based, human
testContext: 50 μM compound
outcomeMeasure: Alamar Blue % Viability (50 μM Dose)
Returns: string containing the number followed by the unit.

1. Cc1ccsc1C(=O)N1CCC[C@@H]1c1ccccc1-c1ccn[nH]1 [ESC1002091]    84.920%

**Query** Read the entry COc1ccc(-c2ccccc2[C@H]2CCCN2C(=O)c2sccc2C)cn1 (single isomer, unassigned) [ESC1002162] and write its reported Alamar Blue % Viability (50 μM Dose).
**Result** 83.498%

**Query** Provide Alamar Blue % Viability (50 μM Dose) value for the following compound: CC(C)CN(C(=O)c1ccccc1F)c1cccc(N(C)Cc2cn[nH]c2)c1 [ESC1002205-02]
**Result** 89.638%

**Query** Please report Alamar Blue % Viability (50 μM Dose) for the following compound: Cc1ccsc1C(=O)N1CCC[C@H]1c1ccccc1-c1cccc(S(C)(=O)=O)c1 [ESC1002322]
**Result** 89.24%

**Query** Give the reported Alamar Blue % Viability (50 μM Dose) for this compound. COc1ccccc1-c1ccccc1[C@@H]1CCCN1C(=O)c1sccc1C [ESC1002325]
**Result** 89.12%

**Query** # return recorded Alamar Blue % Viability (50 μM Dose) for entry COc1ccc(-c2ccccc2[C@H]2CCCN2C(=O)c2sccc2C)cc1 [ESC1002089]
**Result** 83.064%

**Query** Give a short answer stating reported Alamar Blue % Viability (50 μM Dose) for CC(=O)N(CC(C)C)c1cccc(N(C)Cc2cnc[nH]2)c1 [ESC1002171] .
**Result** 86.843%

**Query** Query Alamar Blue % Viability (50 μM Dose) for CN(Cc1c[nH]cn1)c1cccc(N(CC2CCC2)C(=O)c2ccccc2F)c1 [ESC1002265]
**Result** 80.52%

====

Test system: mtsABAD HEK293 cells
assayProcedure: Alamar Blue cell viability assay
Assay type: cell-based, human
testContext: 50 μM compound
Listed next: entries and their corresponding Alamar Blue % Viability (50 μM Dose).
Please reply with the bare figure in % and do not write the unit itself.

**Query** Name the recorded Alamar Blue % Viability (50 μM Dose) of the item Cc1ccsc1C(=O)N1CCC[C@H]1c1ccccc1-c1ccc(Cl)c(C(F)(F)F)c1 in your answer.
**Result** 90.36

**Query** Supply Alamar Blue % Viability (50 μM Dose) value. Item: Cc1ccsc1C(=O)N1CCC[C@H]1c1ccccc1-c1ccc(OC(F)(F)F)cc1
**Result** 84.77

**Query** Quote Alamar Blue % Viability (50 μM Dose) reported for CC(C)CN(C(=O)c1ccccc1F)c1cccc(N(C)Cc2ccccn2)c1 please.
**Result** 80.514

**Query** Tell me Alamar Blue % Viability (50 μM Dose) reported for CC(C)CN(C(=O)Cc1ccccc1)c1cccc(N(C)Cc2cnc[nH]2)c1
**Result** 79.269

====

targetEntity: 17β-HSD10 (Homo sapiens, UniProt Q99714)
Construct: Histev (histidine tag with TEV site) (N, cleaved yes); made in house; host or cells: E. coli BL21-CodonPlus
Sequence (Q99714 1-261): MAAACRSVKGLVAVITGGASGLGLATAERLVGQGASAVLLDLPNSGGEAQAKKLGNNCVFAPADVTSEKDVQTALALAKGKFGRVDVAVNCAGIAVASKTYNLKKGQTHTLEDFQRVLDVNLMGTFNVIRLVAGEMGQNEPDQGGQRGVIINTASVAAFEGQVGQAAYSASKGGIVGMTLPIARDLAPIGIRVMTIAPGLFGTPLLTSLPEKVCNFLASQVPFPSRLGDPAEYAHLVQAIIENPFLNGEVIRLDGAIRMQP
assayProcedure: 17β-HSD10 (ABAD) enzyme inhibition assay, NADH oxidation read at 340 nm (primary screen and dose response)
Type: biochemical
testContext: recombinant 17βHSD10 enzyme assay, curve fit
Method: Cell pellets of E. coli BL21-CodonPlus cells containing Histev-17β-HSD10 protein were re-suspended for 30 min, 4° C., in lysis buffer (20 mM NaH2PO4, 30 mM imidazole, 500 mM NaCl, 10% (v/v) glycerol, pH 7.5) with the addition of complete ethylenediaminetetraacetic acid (EDTA)-free protease inhibitor tablets (Roche), lysozyme (1 mg/mL), deoxyribonuclease (DNase) (20 μg/mL) and Triton X-100 (0.1% (v/v)). […]
// reported Hill Slope per item
Lab note: jot the number down without any unit.

**Query** Entry O=C(c1sccc1Cl)N1CCC[C@H]1c1ccccc1-c1cccc(O)c1 (single isomer, unassigned) needs its Hill Slope filled in; supply it.
**Result** 1

====

targetEntity: 17β-HSD10 (Homo sapiens)
Construct: Histev (histidine tag with TEV site) (N, cleaved yes); made in house; host or cells: E. coli BL21-CodonPlus
assayProcedure: 17β-HSD10 (ABAD) enzyme inhibition assay, NADH oxidation read at 340 nm (primary screen and dose response)
Type: biochemical
testContext: recombinant 17βHSD10 enzyme assay, curve fit
Param threshold (100) applies to Max. Fit; output Met when value >= threshold, Not met when value < threshold.

Recorded results for 5 compounds are shown here.
1. O=C(c1sccc1Cl)N1CCC[C@H]1c1ccccc1-c1cc(O)cc(F)c1 (single isomer, unassigned) [ESC1002801]    Not met
2. CC(C)CN(C(=O)c1ccncn1)c1cccc(N(C)Cc2c[nH]cn2)c1    Not met
3. COc1cccc(-c2ccccc2[C@@H]2CCCN2C(=O)c2sccc2C)c1 (single isomer, unassigned) [ESC1002421]    Not met
4. CN(Cc1c[nH]cn1)c1cccc(N(CC2CC2)C(=O)c2ccccc2F)c1    Not met
5. COc1cccc(-c2ccccc2[C@@H]2CCCN2C(=O)c2[nH]ncc2Cl)c1 (single isomer, unassigned) [ESC1002757]    Not met

**Query** Assess whether reported Max. Fit for CC(C)CN(C(=O)c1ccccc1S(C)(=O)=O)c1cccc(N(C)Cc2c[nH]cn2)c1 sits at 100 or higher.
**Result** Met

**Query** Is reported Max. Fit greater than or equal to 100 here: CN(Cc1c[nH]cn1)c1cccc(N(CC(C)(C)C)C(=O)c2ccccc2F)c1
**Result** Met

**Query** Dear colleague, could you confirm whether CC(C)CN(C(=O)c1cccc2ccccc12)c1cccc(N(C)Cc2cnc[nH]2)c1 has Max. Fit at or above 100?
**Result** Not met

**Query** Kindly determine if Max. Fit recorded for Cc1ccsc1C(=O)N1CCC[C@@H]1c1ccccc1-c1ccc(C2CC2)cc1 is above or exactly 100.
**Result** Not met

**Query** Determine whether measured Max. Fit meets or exceeds 100 for COc1cccc(-c2ccccc2[C@H]2CCCN2C(=O)c2cccs2)c1
**Result** Not met

**Query** Exam item: decide whether the reported Max. Fit for COc1cccc(-c2ccccc2[C@H]2CCCN2C(=O)c2sccc2F)c1 is at least 100.
**Result** Not met

**Query** Exam item: decide whether the reported Max. Fit for CC(C)CN(C(=O)c1ccncc1)c1cccc(N(C)Cc2cnc[nH]2)c1 is at least 100.
**Result** Met

====

targetEntity: 17β-HSD10 (Homo sapiens, UniProt Q99714)
Construct: Histev (histidine tag with TEV site) (N, cleaved yes)
assayProcedure: 17β-HSD10 (ABAD) enzyme inhibition assay, NADH oxidation read at 340 nm (primary screen and dose response)
testContext: recombinant 17βHSD10 enzyme assay
outcomeMeasure: EC50 (nM)
Express the result in nM but write the number alone.

Solved entries (count: 5):
1) CCCCN(C(=O)c1ccccc1F)c1cccc(N(C)Cc2c[nH]cn2)c1    1550
2) COc1ccc(-c2ccc(-c3cn[nH]c3)s2)c(OC)c1OC    3980
3) Cc1ccsc1C(=O)N1CCC[C@@H]1c1ccccc1-c1ccn[nH]1    3160
4) Cc1ccsc1C(=O)N1CCC[C@H]1c1ccccc1-c1cccc(Cl)c1 [ESC1002321]    263
5) Cc1ccsc1C(=O)N1CCC[C@H]1c1ccccc1-c1ccc(S(C)(=O)=O)cc1    5890

**Query** Item Cc1ccsc1C(=O)N1CCC[C@@H]1c1ccccc1-c1cnn(C2CCNCC2)c1 : provide EC50
**Result** 18200

**Query** Return value of EC50 for input Cc1ccsc1C(=O)N1CCC[C@H]1c1ccccc1-c1ccccc1Cl (single isomer, unassigned) [ESC1002767] , no commentary.
**Result** 155

**Query** Let me know recorded EC50 for COc1ccc(-c2ccccc2[C@H]2CCCN2C(=O)c2sccc2C)cn1 (single isomer, unassigned) , thanks.
**Result** 490

**Query** # return recorded EC50 for input Cc1ccsc1C(=O)N1CCC[C@H]1c1ccccc1-c1ccc(Cl)c(C(F)(F)F)c1
**Result** 1450

**Query** Consider the compound COc1cccc(-c2ccccc2[C@@H]2CCCN2C(=O)c2[nH]ncc2Cl)c1 (single isomer, unassigned) [ESC1002757] . State its measured EC50.
**Result** 115

**Query** Let me know recorded EC50 for CC(C)CN(C(=O)c1ccccc1F)c1cccc(N(C)Cc2nccn2C)c1 , thanks.
**Result** 10000

**Query** Supply recorded EC50 for Cc1n[nH]c(Cc2ccccc2)c1-c1ccccc1O here.
**Result** 501

**Query** Name the recorded EC50 of the compound listed here: CCN(C(=O)c1ccccc1F)c1cccc(N(C)Cc2cnc[nH]2)c1
**Result** 1480
